Target: T1, ARHGAP21, Q5T5U3
T1 sequence (Q5T5U3 45-169, limits assumed, looked up): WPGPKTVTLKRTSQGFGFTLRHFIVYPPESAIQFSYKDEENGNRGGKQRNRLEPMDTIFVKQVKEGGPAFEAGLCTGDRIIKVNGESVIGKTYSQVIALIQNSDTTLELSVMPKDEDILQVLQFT
Test: holdup assay
Set-up: key: below the threshold = too weak to quantify, mostly under pKd 3.1 to 4
Details: plain residues with an end cap or a label only (N-terminal biotin on a linker: ado-ado)
Test Readout: pKd

{"Binder": "RDPPAEWTRV [PTPN18, Q99952]", "Measured Result": 3.95}
{"Binder": "APIAGFSSFV [SDK2, Q58EX2]", "Measured Result": 4.04}

Where do the numbers come from? From paper PMC9482650.
